Assign log10(EC50) to each entry below.
SYSTEM_TESTED: human OX2R (Homo sapiens)
Construct: expressed in transfected cells; host or cells: CHO (Chinese hamster ovary) cells, grown under G418 selection
Sequence (O43614 1-444): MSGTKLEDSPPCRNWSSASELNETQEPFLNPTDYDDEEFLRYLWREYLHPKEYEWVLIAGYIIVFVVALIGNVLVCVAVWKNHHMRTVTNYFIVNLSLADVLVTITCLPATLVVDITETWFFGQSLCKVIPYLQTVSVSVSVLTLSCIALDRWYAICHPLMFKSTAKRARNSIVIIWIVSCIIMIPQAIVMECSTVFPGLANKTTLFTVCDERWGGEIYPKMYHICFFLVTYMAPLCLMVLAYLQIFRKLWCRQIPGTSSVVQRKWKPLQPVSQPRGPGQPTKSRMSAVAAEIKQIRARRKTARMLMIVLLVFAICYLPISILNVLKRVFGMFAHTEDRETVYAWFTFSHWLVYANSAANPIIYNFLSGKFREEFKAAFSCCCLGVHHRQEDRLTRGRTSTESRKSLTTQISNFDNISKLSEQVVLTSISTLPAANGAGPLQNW
PROTOCOL_NOTES: IPOne (IP-1 accumulation) assay in CHO cells expressing human OX2R
Type: cell-based
CONDITION_SUMMARY: CHO cells expressing human OX2R; IP-One assay, 2 hours incubation; four parameter logistic fit; read-out: OX2R Potency, EC50
Please note: log10 values; quantity EC50; unit nM.

Sample CC(C)C1CCC(OC[C@H]2[C@@H](NS(C)(=O)=O)CCN2C(=O)C2CC2)CC1 (stereo partly drawn) — what was its log10(EC50)? 2.64

Sample CS(=O)(=O)N[C@H]1CCN(C(=O)C2CC2)[C@H]1CO[C@H]1CC[C@@H](c2ccccc2)CC1 (relative stereo) — what was its log10(EC50)? 1.89

Sample COC(=O)N1CC[C@@H](NS(=O)(=O)CF)[C@H]1CO[C@H]1CC[C@@H](c2ccccc2)CC1 (relative stereo) — what was its log10(EC50)? 2.25

Sample CC(C)NC(=O)N1CC[C@@H](NS(C)(=O)=O)[C@H]1CO[C@H]1CC[C@@H](c2ccccc2)CC1 (relative stereo) — what was its log10(EC50)? 1.56

Sample COC(=O)N1CC[C@@H](NS(=O)(=O)C2CC2)[C@H]1CO[C@H]1CC[C@@H](c2ccccc2)CC1 (relative stereo) — what was its log10(EC50)? 2.48

Sample CCS(=O)(=O)N[C@H]1CCN(C(=O)OC)[C@H]1CO[C@H]1CC[C@@H](c2ccccc2)CC1 (relative stereo) — what was its log10(EC50)? 2.13

Sample CS(=O)(=O)N[C@H]1CCN(C(=O)CO)[C@H]1CO[C@H]1CC[C@@H](c2ccccc2)CC1 (relative stereo) — what was its log10(EC50)? 2.56

Sample CS(=O)(=O)N[C@H]1CCN(C(=O)CC(F)(F)F)[C@H]1CO[C@H]1CC[C@@H](c2ccccc2)CC1 (relative stereo) — what was its log10(EC50)? 3.00

Sample COC(=O)N1CCC(NS(C)(=O)=O)[C@@H]1COC1CCC(C(C)C)CC1 (stereo in doubt) — what was its log10(EC50)? 2.55

Sample COC(=O)N1CC[C@H](NS(C)(=O)=O)[C@@H]1CO[C@H]1CC[C@@H](c2ccccc2)CC1 [Example 11] — what was its log10(EC50)? 2.06

Sample CS(=O)(=O)N[C@H]1CCN(C(=O)OCC(F)F)[C@H]1CO[C@H]1CC[C@@H](c2ccccc2)CC1 (relative stereo) [Example 23] — what was its log10(EC50)? 1.78

Sample CC(=O)OCC(=O)N1CC[C@H](NS(C)(=O)=O)[C@@H]1CO[C@H]1CC[C@@H](c2ccccc2)CC1 (relative stereo) — what was its log10(EC50)? 2.56

Sample CS(=O)(=O)N[C@H]1CCN(C(=O)NCC2CCC2)[C@H]1CO[C@H]1CC[C@@H](c2ccccc2)CC1 (relative stereo) — what was its log10(EC50)? 0.75

Sample CS(=O)(=O)N[C@H]1CCN(C(=O)C2CC2)C1COC1CCC(c2ccccc2)CC1 (single isomer, unassigned) — what was its log10(EC50)? 1.69

Sample COC(=O)N1CC[C@@H](NS(=O)(=O)C(C)C)[C@H]1CO[C@H]1CC[C@@H](c2ccccc2)CC1 (relative stereo) — what was its log10(EC50)? 2.57

Sample CNS(=O)(=O)N[C@@H]1CCN(C(=O)OC)[C@@H]1CO[C@H]1CC[C@@H](c2ccccc2)CC1 (relative stereo) — what was its log10(EC50)? 1.82

Sample COC(=O)N1CC[C@@H](NS(=O)(=O)N(C)C)[C@H]1CO[C@H]1CC[C@@H](c2ccccc2)CC1 (relative stereo) — what was its log10(EC50)? 1.60

Sample CS(=O)(=O)N[C@H]1CCN(C(=O)NCC(F)(F)F)[C@H]1CO[C@H]1CC[C@@H](c2ccccc2)CC1 (relative stereo) — what was its log10(EC50)? 0.56

Sample CC(C)OC(=O)N1CC[C@@H](NS(C)(=O)=O)[C@H]1CO[C@H]1CC[C@@H](c2ccccc2)CC1 (relative stereo) — what was its log10(EC50)? 3.42

Sample CS(=O)(=O)N[C@@H]1CCN(C(=O)OCCF)[C@@H]1CO[C@H]1CC[C@@H](c2ccccc2)CC1 (relative stereo) — what was its log10(EC50)? 2.33

Sample CS(=O)(=O)N[C@H]1CCN(C(=O)OCC(F)F)[C@H]1CO[C@H]1CC[C@@H](c2ccccc2)CC1 [Example 12] — what was its log10(EC50)? 1.91

Sample COC(=O)N1CC[C@H](NS(C)(=O)=O)[C@@H]1CO[C@H]1CC[C@@H](c2ccccc2)CC1 (relative stereo) [Example 2] — what was its log10(EC50)? 2.52

Sample CC(=O)N1CC[C@H](NS(C)(=O)=O)[C@@H]1CO[C@H]1CC[C@@H](c2ccccc2)CC1 (relative stereo) — what was its log10(EC50)? 2.43

Sample CS(=O)(=O)N[C@H]1CCN(C(=O)OCC(F)(F)F)[C@H]1CO[C@H]1CC[C@@H](c2ccccc2)CC1 (relative stereo) — what was its log10(EC50)? 2.69

----------
SYSTEM_TESTED: human OX2R (Homo sapiens, UniProt O43614)
Construct: expressed in transfected cells; host or cells: CHO (Chinese hamster ovary) cells, grown under G418 selection
PROTOCOL_NOTES: IPOne (IP-1 accumulation) assay in CHO cells expressing human OX2R
Type: cell-based
CONDITION_SUMMARY: OX2R; percentage of sample raw value/mean max effect (reference compound at 1 uM with 100% activity)
QUANTITY_KIND: Emax, % of reference agonist
Kindly write the number and append the unit.

Sample CS(=O)(=O)N[C@H]1CCN(C(=O)NCC2CCC2)[C@H]1CO[C@H]1CC[C@@H](c2ccccc2)CC1 (relative stereo) [Example 21] — what was its Emax, % of reference agonist? 103.2%

Sample CC(=O)OCC(=O)N1CC[C@H](NS(C)(=O)=O)[C@@H]1CO[C@H]1CC[C@@H](c2ccccc2)CC1 (relative stereo) [Example 7] — what was its Emax, % of reference agonist? 98.8%

Sample COC(=O)N1CC[C@H](NS(C)(=O)=O)[C@@H]1CO[C@H]1CC[C@@H](c2ccccc2)CC1 [Example 11] — what was its Emax, % of reference agonist? 100.2%

Sample COC(=O)N1CCC(NS(C)(=O)=O)[C@@H]1COC1CCC(C(C)C)CC1 (stereo in doubt) [Example 29] — what was its Emax, % of reference agonist? 99.0%

----------
Assign Emax, % of reference agonist to each entry below.
SYSTEM_TESTED: human OX2R (Homo sapiens)
Construct: expressed in transfected cells; host or cells: CHO (Chinese hamster ovary) cells, grown under G418 selection
PROTOCOL_NOTES: IPOne (IP-1 accumulation) assay in CHO cells expressing human OX2R
Format: cell-based
CONDITION_SUMMARY: OX2R; percentage of sample raw value/mean max effect (reference compound at 1 uM with 100% activity)
Kindly write the number and append the unit.

Sample COC(=O)N1CC[C@@H](NS(=O)(=O)C2CC2)[C@H]1CO[C@H]1CC[C@@H](c2ccccc2)CC1 (relative stereo) — what was its Emax, % of reference agonist? 99.8%

Sample CS(=O)(=O)N[C@H]1CCN(C(=O)OCC(F)(F)F)[C@H]1CO[C@H]1CC[C@@H](c2ccccc2)CC1 (relative stereo) — what was its Emax, % of reference agonist? 100.2%

Sample COC(=O)N1CC[C@H](NS(C)(=O)=O)[C@@H]1CO[C@H]1CC[C@@H](c2ccccc2)CC1 (relative stereo) [Example 2] — what was its Emax, % of reference agonist? 96.4%

----------
SYSTEM_TESTED: human OX2R (Homo sapiens, UniProt O43614)
Construct: expressed in transfected cells; host or cells: CHO (Chinese hamster ovary) cells, grown under G418 selection
Sequence (O43614 1-444): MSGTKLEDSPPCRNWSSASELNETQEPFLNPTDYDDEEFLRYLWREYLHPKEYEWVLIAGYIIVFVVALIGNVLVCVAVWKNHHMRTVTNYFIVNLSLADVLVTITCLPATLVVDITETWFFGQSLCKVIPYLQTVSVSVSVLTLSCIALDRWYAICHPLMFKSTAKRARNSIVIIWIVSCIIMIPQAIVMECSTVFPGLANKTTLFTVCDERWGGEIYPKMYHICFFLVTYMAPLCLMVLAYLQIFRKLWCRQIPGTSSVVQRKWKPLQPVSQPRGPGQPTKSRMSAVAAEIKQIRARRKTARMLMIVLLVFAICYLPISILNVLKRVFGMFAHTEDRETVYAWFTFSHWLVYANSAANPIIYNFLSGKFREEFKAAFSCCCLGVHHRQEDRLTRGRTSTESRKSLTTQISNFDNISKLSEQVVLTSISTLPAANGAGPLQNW
PROTOCOL_NOTES: IPOne (IP-1 accumulation) assay in CHO cells expressing human OX2R
Type: cell-based
CONDITION_SUMMARY: OX2R; percentage of sample raw value/mean max effect (reference compound at 1 uM with 100% activity)
Excerpt: The utility of the compounds in accordance with the present invention as orexin receptor OX1R and/or OX2R agonists may be readily determined without undue experimentation by methodology well known in the art. […] The half-life of IP-3 is relatively short, being rapidly metabolized to inositol monophosphate (IP-1), which can be readily detected using a commercially available assay kit (IP-One; Cisbio; cat #621PAPEC) coupled with a cell line expressing the target receptor(s) of interest. […]
QUANTITY_KIND: Emax, % of reference agonist (%)
Output spec: scalar in %, unitless text.

Sample CS(=O)(=O)N[C@H]1CCN(C(=O)C2CC2)[C@H]1CO[C@H]1CC[C@@H](c2ccccc2)CC1 (relative stereo) — what was its Emax, % of reference agonist? 101.6

Sample CS(=O)(=O)N[C@H]1CCN(C(=O)C2CC2)C1COC1CCC(c2ccccc2)CC1 (single isomer, unassigned) [Example 27] — what was its Emax, % of reference agonist? 100.2

Sample CNS(=O)(=O)N[C@@H]1CCN(C(=O)OC)[C@@H]1CO[C@H]1CC[C@@H](c2ccccc2)CC1 (relative stereo) — what was its Emax, % of reference agonist? 98.5
